test system: NCI/ADR-RES ovarian; test: NCI-60 one-dose screen, 48 h (100 = growth as untreated, 0 = no growth, -100 = all killed); settings: 10 µM unless noted
About 83,000 compounds went through this panel and 20% of them were active in at least one assay; those are over-represented in the sample as a whole.
Quantity name: growth (%)

> print(dat)
                                   compound            tested.on  quantity.name  measurement.units  endpoint.result
1         CN(C)c1ccc(N=Nc2ccc(Br)cn2)c(O)c1  NCI/ADR-RES ovarian         growth                  %             12.8
2  Cn1nc(N)c2cc([C@@H]3Nc4ccc5[nH]ncc5c4[C@H]4C5CCC(C5)[C@@H]34)ccc21 (stereo not given in full)  NCI/ADR-RES ovarian         growth                  %             3.15
3  COc1cccc(/C=C2\SC(=Nc3ccc(NC(C)=O)cc3)NC2=O)c1OC  NCI/ADR-RES ovarian         growth                  %              102
4  COc1ccc(-c2nc3cc(C(=O)Nc4cc(OC)c(OC)c(OC)c4)ccc3n2C2CCCCC2)cc1  NCI/ADR-RES ovarian         growth                  %             98.3
5            CCCOc1ccc2nc(NC(=O)OC)[nH]c2c1  NCI/ADR-RES ovarian         growth                  %             -6.3

====

tested on: MDA-MB-435 melanoma; assay: NCI-60 one-dose screen, 48 h; details: 10 µM unless noted
Compounds without any hit were thinned out: in the full panel of roughly 83,000, 20% have a hit. Activity calls are given as the source filed them. Rule for the calls: active = growth percent below 10; inactive = the rest.
Classes used: active, inactive

> print(dat)
                                   compound  discrete.label
1  COc1ccc(-n2nc(C)c3c(Nc4ccc(NC(=O)Nc5cccc(C(F)(F)F)c5)cc4)ncnc32)cc1          active
2  COc1ccc(C(=O)COc2cccc(/C=C3\CSc4ccccc4C3=O)c2)cc1          active
3  CC(O)CN1CC(O)=C(c2nc3ccccc3s2)C1=N (stereo not given)        inactive
4  COc1ccc(C2CC(c3ccc(Cl)cc3)=NN2/C=C2\SC(=S)N(NC(=O)Cc3ccccc3Nc3c(Cl)cccc3Cl)C2=O)cc1 (stereo not given)        inactive
5   O=C1C=CC(=O)N1c1ccc2c(c1)Cc1cc(F)ccc1-2        inactive

====

test system: T-47D breast; assay: NCI-60 one-dose screen, 48 h (100 = growth as untreated, 0 = no growth, -100 = all killed); conditions: 10 µM unless noted
Compounds without any hit were thinned out: in the full panel of roughly 83,000, 20% have a hit. Calls of active or inactive are those of the source. The calls were made as follows: active = growth percent below 10; inactive = the rest.
// reported growth for each item listed

Compound	growth
CCN1CCC2(CC1)NC(=O)c1c(c3ccc(Cl)c(Cl)c3n1C)C2C#N (centres undefined)	75% (inactive)
COc1cc(C)c(C2C(C#N)=C(N)Oc3n[nH]c(-c4cccs4)c32)cc1C(C)C (centres undefined)	84.4% (inactive)
CC(C)CC1C(=O)N2CCC[C@H]2C2(O)O[C@](NC(=O)C3C=C4c5cccc6[nH]c(Br)c(c56)C[C@H]4N(C)C3)(C(C)C)C(=O)N12 (some centres undefined)	47.2% (inactive)
CSc1ccc(-c2ccccc(=O)c2O)cc1	27% (inactive)
O=C(COc1ccc(/C=C2\CSc3ccccc3C2=O)cc1)Nc1nccs1	90% (inactive)
O=C(/C=C/c1cccc([N+](=O)[O-])c1)c1ccc(O)c(CN2CCN(c3cc4c(cc3F)c(=O)c(C(=O)O)cn4C3CC3)CC2)c1	10.9% (inactive)
c1ccc(-c2c(-c3ccccc3)[n+](Cc3ccc4ccccc4c3)c(-c3ccc(-c4nc5ccccc5s4)cc3)n2Cc2ccc3ccccc3c2)cc1	-78.2% (active)
CCCCC(=O)OCC1OC(n2cnc3c(=S)nc[nH]c32)C(OC(=O)CCCC)C1OC(=O)CCCC (centres undefined)	36.1% (inactive)
COc1cc(-c2nc(C(=O)NCC(=O)NO)nn2-c2ccc(Cl)cc2)cc(OC)c1OC	88.2% (inactive)
CSc1nc(Nc2cccc(NC(=O)CCl)c2)c(C#N)c(-c2cccc([N+](=O)[O-])c2)n1	12.2% (inactive)
NC(=O)c1cc(Cl)ccc1NC(=O)/C=C/c1ccccc1	14.9% (inactive)
OC(c1cc2cc(Cl)c(Cl)cc2c2cc(C(F)(F)F)ccc12)C1CCCCN1 (centres undefined)	-78.6% (active)
CCOC(=O)c1c(CN2CCN(C)CC2)nc2ccc(Cl)cc2c1-c1ccccc1	74.3% (inactive)
O=S(=O)(Nc1ccc(I)cc1F)c1ccc(-c2cnc(C3CC3)o2)cc1	52% (inactive)
CCc1nnc(CNc2ccc(Cl)cc2)o1	93.9% (inactive)
CNC(=O)c1cc(Oc2ccc(NC(=O)Nc3ccc(Cl)c(SC)c3)c(F)c2)ccn1	-3.32% (active)
C#Cc1cccc(NC(=O)c2ccccc2NC(=O)C=C)c1	76.6% [8.25 µM] (inactive)
COc1ccc(-c2cc(C(=O)N=Nc3c(O)[nH]c4ccc(Br)cc34)no2)cc1	93.6% (inactive)
C(=N/Nc1ncc(-c2cc3cc(-c4ccccc4)ccc3o2)s1)/c1cccs1	100% (inactive)
CCN(CC)c1ccc2c(c1)Oc1nc(N)c(C#N)c(N)c1C2Sc1ccc(SC)cc1 (centres undefined)	-4.08% (active)
CCC#CC[C@H](O)C/C=C1/C(=O)C=C[C@@H]1C/C=C\CCCC(=O)OC	5.68% (active)
O=c1c2c3c(sc2nc(N/N=C/c2cn(-c4ccccc4)nc2-c2ccc(Cl)cc2)n1Cc1ccccc1)CCCC3	105% (inactive)
CC1=NN(c2nc(-c3ccc(Cl)cc3)c(C#N)c(N3CCOCC3)n2)C(=O)C1	93.3% (inactive)
O=C(N=Nc1c(O)[nH]c2ccc(Br)cc12)c1cc(-c2ccccc2)on1	101% (inactive)
CCc1nc(N)nc(N)c1C#CC(C)c1cc(-c2ccnc(C)c2)c2oc(C)nc2c1 (centres undefined)	9.59% (active)
Brc1ccc(-c2csc(Nc3ccccn3)n2)cc1	53.7% (inactive)
COc1cc2c(cc1O)CC[C@@H]1[C@@H]2CC[C@]2(C)[C@@H](OCCN(C)C)CC[C@@H]12	58.3% (inactive)
CCCOc1ccc2nc(NC(=O)OC)[nH]c2c1	89.8% (inactive)
COc1ccc(CN2c3ccccc3Oc3ccccc32)cc1O	30.6% (inactive)
NC(=NCCCOc1ccc(Cl)cc1)Nc1ccc(Cl)cc1	8.01% (active)
Cc1ccc(O)c(N2C(=NCc3ccco3)NS(=O)(=O)c3cnccc32)c1	110% (inactive)
COc1ccc2c(c1)O/C(=C\c1cccc(OCC(=O)Nc3nc4c(s3)CCCC4)c1)C2=O	58.4% (inactive)
Nc1n[nH]c2ccc([C@@H]3Nc4cc5c(cc4[C@H]4C6CCC(C6)[C@@H]34)C(=O)NC5)cc12 (some centres undefined)	76.9% (inactive)
O=C(N=Nc1c(O)[nH]c2ccccc12)c1cc(-c2ccccc2)on1	97.6% (inactive)
CCCCN(CCCC)CCCn1c(-c2ccccc2)ccc1-c1ccccc1	67.4% (inactive)
CCN=C1C=CC(=C(c2ccc(N)cc2)c2ccc(N(CC)CC)c(C)c2)C=C1	1.14% (active)
O=C1c2ccccc2C(=O)c2c(N=Nc3[nH]c(=S)[nH]c3O)cccc21	21.8% (inactive)
COc1ccc(C(=O)COc2cccc(/C=C3\CSc4ccccc4C3=O)c2)cc1	69.7% (inactive)
CCCn1c(=O)[nH]c(N)c([C@H]2c3ccccc3Oc3[nH]c(=O)n(CCC)c(=O)c32)c1=O	34.7% (inactive)

====

system: SF-268 CNS; assay: NCI-60 one-dose screen, 48 h (100 = growth as untreated, 0 = no growth, -100 = all killed); conditions: 10 µM unless noted
The panel holds about 83,000 compounds, 20% with a hit somewhere; the sample as a whole holds those more often. The source made the active and inactive calls. The calls were made as follows: active = growth percent below 10; inactive = the rest.
Quantity name: growth

> print(dat)
                            molecule.smiles           endpoint.result
1  CCOC(=O)n1cc(-c2nonc2-c2cn(C)c3ncccc23)c2cc(F)ccc21          74.2% (inactive)
2           OCc1ccc(N2CCc3cccc(F)c3C2)cc1Cl  105% [0.1 µM] (inactive)
3    Cc1nc2ccccc2n1C(=O)C[C@@H]1NC(=S)NC1=O          95.1% (inactive)
4  COC(=O)[C@]12CCC(C)(C)C[C@H]1[C@H]1C(=O)C[C@@H]3[C@@]4(C)c5c([nH]c6ccccc6c5=O)C(C)(C)[C@@H]4CC[C@@]3(C)[C@]1(C)CC2            82% (inactive)
5   O=C1/C(=C(/c2ccccc2)N2CCOCC2)Cc2ccccc21          11.3% (inactive)
